Test system: Acinetobacter baumanii ATCC19606
TEST: Antibacterial broth dilution MIC
Assay type: cell-based
CONDITION SUMMARY: Acinetobacter baumannii, ATCC19606
Where a SMILES comes first, the peptide text is derived from it. [ ]: non-standard residue; d: D form. Trp(1-(1,1-Me2-allyl)) = C=CC(C)(C)n1cc(C[C@H](N)C(=O)O)c2ccccc21; Tyr(3-NO2) = N[C@@H](Cc1ccc(O)c([N+](=O)[O-])c1)C(=O)O; Gly(E-crotyl) = C/C=C/C[C@H](N)C(=O)O; NMeL = CN[C@@H](CC(C)C)C(=O)O
REPORTED ENDPOINT: MIC (µM)
Kindly answer with a numeric value in µM, unit omitted.

- COMPOUND: "CC=CCC1NC(=O)C(CC(C)C)N2C(=O)C(CC(C)C2O)N(C)C(=O)C(C)NC(=O)C(Cc2ccc(O)c([N+](=O)[O-])c2)NC(=O)C(CC(C)C)N(C)C(=O)C(Cc2cn(C(C)(C)C3CO3)c3ccccc23)NC1=O (stereo not drawn) [3/4]"
  TARGET SYSTEM: "Acinetobacter baumanii ATCC19606"
  MIC / µM: 123
- COMPOUND: "C=CC(C)(C)n1cc(C[C@@H]2NC(=O)[C@H](C/C=C/C)NC(=O)[C@H](CC(C)C)N3C(=O)[C@H](C[C@H](C)C3O)N(C)C(=O)[C@H](C)NC(=O)[C@H](Cc3ccc(O)c([N+](=O)[O-])c3)NC(=O)[C@H](CC(C)C)N(C)C2=O)c2ccccc21 (stereo partly drawn) [6/7]"
  TARGET SYSTEM: "Acinetobacter baumanii ATCC19606"
  MIC / µM: 125

Here is the next item to consider.
What reported MIC corresponds to C=CC(C)(C)n1cc(C[C@@H]2NC(=O)[C@H](C/C=C/C)NC(=O)[C@H](CC(C)C)NC(=O)[C@H](CC(C)C)N(C)C(=O)[C@H](C)NC(=O)[C@H](Cc3ccc(O)c([N+](=O)[O-])c3)NC(=O)[C@H](CC(C)C)N(C)C2=O)c2ccccc21 [compound 1, ilamycin B1] (cyclo(A[NMeL]L[Gly(E-crotyl)][Trp(1-(1,1-Me2-allyl))][NMeL][Tyr(3-NO2)])) on Acinetobacter baumanii ATCC19606? 126
